// reported HLA-E surface expression stability (GeoMFI) for each item listed
Molecular target: HLA-E (Homo sapiens, UniProt P13747)
Construct: expressed in transfected cells; host or cells: RMA-S/HLA-E cells (antigen processing-defective lymphoma cell line)
Sequence (P13747 22-358): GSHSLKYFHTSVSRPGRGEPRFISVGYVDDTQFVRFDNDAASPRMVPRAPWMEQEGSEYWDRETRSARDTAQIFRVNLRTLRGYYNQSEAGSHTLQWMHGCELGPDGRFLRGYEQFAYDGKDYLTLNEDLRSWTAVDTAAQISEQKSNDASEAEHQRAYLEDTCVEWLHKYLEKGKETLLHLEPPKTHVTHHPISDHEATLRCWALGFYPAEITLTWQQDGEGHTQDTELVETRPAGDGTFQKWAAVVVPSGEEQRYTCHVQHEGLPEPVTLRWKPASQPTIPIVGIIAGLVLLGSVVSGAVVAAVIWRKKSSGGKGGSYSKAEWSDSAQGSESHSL
Sequence (P61769 21-119 partner): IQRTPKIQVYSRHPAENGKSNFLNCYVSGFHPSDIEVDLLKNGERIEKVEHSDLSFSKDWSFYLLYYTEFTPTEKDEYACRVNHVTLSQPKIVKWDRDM
Assay: HLA-E surface stabilization assay with RMA-S/HLA-E cells
Type: cell-based
Details: 30 μM peptide, 16 hours, anti-HLA-E antibody, Trial 2
Where no end group is shown, it is not given here.
The figure you give is taken to be in GeoMFI; do not add the unit.

As a guide, the following entries are already answered.
[[record]]
record_sequence = "QMPSRSLLF [human1, QMPSRSLLF]"
tgt = "HLA-E (Homo sapiens, UniProt P13747)"
result_value = 1755

[[record]]
record_sequence = "TLPERTLYL [human7, peptide ECEL1 269-277 derived from the human proteome]"
tgt = "HLA-E (Homo sapiens, UniProt P13747)"
result_value = 3535

[[record]]
record_sequence = "VNPGRSLFL [human5, VNPGRSLFL]"
tgt = "HLA-E (Homo sapiens, UniProt P13747)"
result_value = 509

[[record]]
record_sequence = "FLPNRSLLF [human8, peptide SLC52A3 354-362 derived from the human proteome]"
tgt = "HLA-E (Homo sapiens, UniProt P13747)"
result_value = 813


Now look at this one.
The sequence TGPWRSLWI [human3, TGPWRSLWI] on HLA-E (Homo sapiens, UniProt P13747): HLA-E surface expression stability (GeoMFI) was 428

###

percentage of CD107+ NK cells listing for selected sequences.
Tested on: NKG2A−/NKG2C+ NK cells
Test: NK cell activation markers in NKG2A-/NKG2C+ NK cells incubated with peptide and K562 expressing HLA-E (activation)
Type: cell-based, human
Details: NKG2A-/NKG2C+ NK cells, K562/HLA-E, Trial 4
Where no end group is shown, it is not given here.
Reply numerically in %, unit not repeated.

Some solved cases for reference:
[[record]]
record_sequence = "VMPPRTLLL [human15, peptide HLA-A 3-11 derived from the human proteome]"
outcome_measure = "percentage of CD107+ NK cells"
result_value = 68.9

[[record]]
record_sequence = "VMAPQSLLL [VMAPQSLLL (PQS), negative control peptide, reference compound]"
outcome_measure = "percentage of CD107+ NK cells"
result_value = 53.6

[[record]]
record_sequence = "TAPARTMFL [human13, TAPARTMFL]"
outcome_measure = "percentage of CD107+ NK cells"
result_value = 57.1

[[record]]
record_sequence = "QMPSRSLLF [human1, QMPSRSLLF]"
outcome_measure = "percentage of CD107+ NK cells"
result_value = 68.2

[[record]]
record_sequence = "VLPHRTQFL [CMV1, novel CMV-derived peptide UL120 72-80, Merlin]"
outcome_measure = "percentage of CD107+ NK cells"
result_value = 67.3

[[record]]
record_sequence = "NMPARTVLF [human14, peptide MTREX 490-498 derived from the human proteome]"
outcome_measure = "percentage of CD107+ NK cells"
result_value = 59.1

[[record]]
record_sequence = "ILTDRSLWL [human4, peptide FBXO41 670-678 derived from the human proteome]"
outcome_measure = "percentage of CD107+ NK cells"
result_value = 73.4

[[record]]
record_sequence = "VNPGRSLFL [human5, VNPGRSLFL]"
outcome_measure = "percentage of CD107+ NK cells"
result_value = 64.3


So, VMAPRTLIL [VMAPRTLIL (LIL), positive control peptide, reference compound] ? Its percentage of CD107+ NK cells was 73.4

In plain terms, VMPGRTLCF [human11, peptide TACR3 226-234 derived from the human proteome] has a documented percentage of CD107+ NK cells of 66.8
